# SYSTEM: ACAT (Mus musculus, UniProt Q61263)
# Construct: endogenous in cells
# Sequence (Q61263 whole entry): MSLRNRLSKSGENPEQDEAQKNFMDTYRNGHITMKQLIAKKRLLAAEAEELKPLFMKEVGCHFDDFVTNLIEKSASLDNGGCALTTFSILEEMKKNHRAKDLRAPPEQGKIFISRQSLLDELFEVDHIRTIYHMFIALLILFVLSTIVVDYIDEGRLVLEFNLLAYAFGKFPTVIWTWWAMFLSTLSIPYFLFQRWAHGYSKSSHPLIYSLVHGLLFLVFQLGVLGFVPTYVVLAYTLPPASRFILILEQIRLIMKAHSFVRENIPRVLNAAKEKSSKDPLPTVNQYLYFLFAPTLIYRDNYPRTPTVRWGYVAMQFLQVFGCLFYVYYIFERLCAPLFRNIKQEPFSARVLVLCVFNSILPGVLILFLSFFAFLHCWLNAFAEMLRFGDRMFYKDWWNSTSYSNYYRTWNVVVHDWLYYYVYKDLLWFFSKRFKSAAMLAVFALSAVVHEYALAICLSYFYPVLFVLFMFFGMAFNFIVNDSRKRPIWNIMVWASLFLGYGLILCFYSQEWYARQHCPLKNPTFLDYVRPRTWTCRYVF
# TEST_PROTOCOL: Inhibition of cholesterol esterification in the murine macrophage-like cell line J774.A1
# EXPERIMENTAL_CONTEXT: J774.A1 cells, ac-LDL loaded, 14C-oleic acid pulse
pIC50: −log10 of the molar value.
READOUT_KIND: pIC50

1. O=C(Nc1ccc(F)cc1F)N(CCCCCSc1nc(-c2ccccc2)c(-c2ccccc2)[nH]1)CCOCCO :: 5.17
2. CCCCCCCN(CCOC(=O)CSc1nc(-c2ccc(OC)cc2)c(-c2ccc(OC)cc2)[nH]1)C(=O)Nc1ccc(F)cc1F :: 5.62

(P) CCCCOCCN(CCCCCSc1nc(-c2ccccc2)c(-c2ccccc2)[nH]1)C(=O)NC(C)C
(Q) COc1ccc(-c2nc(SCCCCCN(CCN3CCOCC3)C(=O)Nc3ccc(F)cc3F)[nH]c2-c2ccc(OC)cc2)cc1
(R) CCCCCCCN(CCOCCSc1nc(-c2ccccc2)c(-c2ccccc2)[nH]1)C(=O)Nc1ccc(F)cc1F
(S) COc1ccc(-c2nc(SCCCCCN(CCOCCO)C(=O)NC(C)C)[nH]c2-c2ccc(OC)cc2)cc1
Request: Rank the 4 molecules: largest pIC50 first, smallest last. In your reply, arrange the labels in the requested order.
Response: P, Q, S, R
(P: 6.08, Q: 5.87, S: 5.62, R: 5.40)
